Kindly supply the reported bioavailability values for the records listed here.
experiment: Oral bioavailability in rat; assay type: ADME, organism-based; details: in vivo

Can you look up the measured bioavailability of CC1(C)CN(Cc2nnc(-c3ccccc3)o2)C(=O)[C@@H]1Oc1ccc(C#N)c(C(F)(F)F)c1 for me?
10%

Can you look up the measured bioavailability of CC1(C)CN(CCC#N)C(=O)[C@@H]1Oc1ccc(C#N)c(C(F)(F)F)c1 for me?
64%

Can you look up the measured bioavailability of C[C@@H](c1nnc(-c2ccccc2)o1)N1CC(C)(C)[C@@H](Oc2ccc(C#N)c(C(F)(F)F)c2)C1=O for me?
25%

Can you look up the measured bioavailability of CC(c1nnc(-c2cccc(F)c2)o1)N1CC(C)(C)C(Oc2ccc(C#N)c(C(F)(F)F)c2)C1=O (racemic) for me?
10%

From: ChEMBL document CHEMBL1944520
